- Tested on: LOX IMVI melanoma
- PROCEDURE_SUMMARY: NCI-60 one-dose screen, 48 h
- CONDITION_INFO: 10 µM unless noted
This is part of a sample that, as a whole, favours compounds with a hit. Of some 83,000 tested, about 20% had one in any assay. Active and inactive are the calls of the source. The calls were made as follows: active = growth percent below 10; inactive = the rest.
Outcome codes: t = active, f = inactive

MOL_SMILES	LABEL_VALUE
Oc1c(CN2CCCC2)cc(COCc2ccc(Br)cc2)c2cccnc12	t
COc1cc(C(=O)/C=C/c2c(-c3ccc(F)cc3)nc3sc(C)cn23)cc(OC)c1OC	f
COc1c(CCC[P+](c2ccccc2)(c2ccccc2)c2ccccc2)cc2c(c1OC)OCO2	f
C=C(C)[C@@H]1CC[C@]2(C(=O)NC3CCCCC3)CC[C@]3(C)[C@H](CC[C@@H]4[C@@]5(C)CCC(=O)C(C)(C)[C@@H]5CC[C@]43C)[C@@H]12	f
